These data points were gathered from paper PMC4336329.

Kindly supply the reported hERG current change (%, negative = inhibition) at 1uM values for the records listed here.
# Target desc: human ether-à-go-go-related gene (hERG) potassium channel (human)
# Sequence (Q12809 whole entry, looked up): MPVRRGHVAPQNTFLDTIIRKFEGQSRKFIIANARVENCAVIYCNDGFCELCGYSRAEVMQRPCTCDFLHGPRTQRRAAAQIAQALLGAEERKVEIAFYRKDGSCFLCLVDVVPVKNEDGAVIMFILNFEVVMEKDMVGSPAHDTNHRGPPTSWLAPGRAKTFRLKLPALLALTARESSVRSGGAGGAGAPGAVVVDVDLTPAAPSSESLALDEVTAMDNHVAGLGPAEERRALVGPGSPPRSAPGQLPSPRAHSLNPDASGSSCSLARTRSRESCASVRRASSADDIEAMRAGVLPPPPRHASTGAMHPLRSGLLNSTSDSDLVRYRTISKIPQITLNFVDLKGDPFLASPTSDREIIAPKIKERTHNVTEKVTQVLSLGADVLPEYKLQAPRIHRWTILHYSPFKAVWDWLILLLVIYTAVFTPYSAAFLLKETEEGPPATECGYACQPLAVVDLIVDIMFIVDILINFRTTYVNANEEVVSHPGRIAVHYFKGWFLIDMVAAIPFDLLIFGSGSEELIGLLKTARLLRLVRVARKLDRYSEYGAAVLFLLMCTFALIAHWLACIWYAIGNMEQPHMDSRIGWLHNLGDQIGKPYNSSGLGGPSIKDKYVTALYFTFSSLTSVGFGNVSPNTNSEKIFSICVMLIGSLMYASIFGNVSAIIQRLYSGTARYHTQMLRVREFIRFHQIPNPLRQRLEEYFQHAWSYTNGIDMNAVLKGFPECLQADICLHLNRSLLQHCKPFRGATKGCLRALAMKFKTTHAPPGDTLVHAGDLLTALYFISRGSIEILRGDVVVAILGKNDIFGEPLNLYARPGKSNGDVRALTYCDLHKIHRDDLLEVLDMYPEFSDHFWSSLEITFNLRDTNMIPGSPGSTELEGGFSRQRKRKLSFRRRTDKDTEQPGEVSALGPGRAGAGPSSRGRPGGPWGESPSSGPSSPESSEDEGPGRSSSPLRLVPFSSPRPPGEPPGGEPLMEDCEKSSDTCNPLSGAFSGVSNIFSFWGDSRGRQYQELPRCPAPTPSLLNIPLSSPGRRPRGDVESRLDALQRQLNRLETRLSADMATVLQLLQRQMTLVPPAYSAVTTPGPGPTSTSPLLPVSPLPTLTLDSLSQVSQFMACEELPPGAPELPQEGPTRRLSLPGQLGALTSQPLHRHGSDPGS
# Method notes: primary screen, population patch clamp on CHO cells stably expressing hERG; higher = less effect of the substance
About 2,200 (0.71%) of roughly 310,000 compounds showed an effect of 50% or more. The effect is printed as a negative number. What follows is part of a selection rich in strong results, with near analogues and random picks from the rest.
// return numeric value only (unit: %, not printed)

Form field hERG current change (%, negative = inhibition) at 1uM, entry "CC[n+]1ccc(C(=O)NCc2ccccc2)cc1.[Cl-]" : 12.3

Recorded hERG current change (%, negative = inhibition) at 1uM (molecule "COc1ccc(Cc2nnc(NC(=O)Nc3ccccc3F)s2)cc1" ): 15.2

"CCOc1ccc(C(=O)N2CCN(C(=O)c3ccco3)CC2)cc1OCC" yielded hERG current change (%, negative = inhibition) at 1uM of 10.8

Please fill in: hERG current change (%, negative = inhibition) at 1uM reported for "CCOC(=O)C1CCN(c2c(NCCCN3CCN(Cc4ccccc4)CC3)c(=O)c2=O)CC1" = 14.3

What the record says about "CCOc1ccc(C(=O)N2CCN(CCc3ccccc3)CC2)cc1OCC" : hERG current change (%, negative = inhibition) at 1uM is -77.5

Record Cn1c(SCC(=O)NCC2CCCO2)ncc(C(=O)Nc2ccc(F)cc2)c1=O (stereo not drawn) , field hERG current change (%, negative = inhibition) at 1uM: 5.38

Lab note: measured hERG current change (%, negative = inhibition) at 1uM of "COc1ccc(C(=O)N2CCN(CCCc3ccccc3)CC2)cc1OC.O=C(O)C(=O)O" was -61.8

Briefly, hERG current change (%, negative = inhibition) at 1uM measured for "COc1ccc(C(=O)N2CCN(Cc3ccc4c(c3)OCO4)CC2)cc1[N+](=O)[O-]" : -6.08

// recorded hERG current change (%, negative = inhibition) at 1uM for Cc1cc(NC(=O)CSc2nc3c(c(=O)n2-c2ccccc2)SC(C)C3)no1 (stereo not drawn) : -8.78
